- ASSAYED_SYSTEM: Type II 5α-Reductase from Human Prostate (Homo sapiens, UniProt P31213)
- Construct: The same procedure as above was used for preparations using tissue from prostate surgery; from tissue; host or cells: human prostate tissue from surgery, homogenate, 100,000×g pellet
- Sequence (P31213 whole entry): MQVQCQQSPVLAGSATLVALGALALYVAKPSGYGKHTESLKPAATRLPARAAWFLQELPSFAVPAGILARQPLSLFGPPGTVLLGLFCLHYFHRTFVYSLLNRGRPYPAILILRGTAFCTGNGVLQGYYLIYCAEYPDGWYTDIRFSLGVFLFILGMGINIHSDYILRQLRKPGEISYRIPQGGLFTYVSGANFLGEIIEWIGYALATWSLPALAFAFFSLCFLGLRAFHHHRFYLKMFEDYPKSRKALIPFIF
- PROCEDURE_DETAILS: Human Type II 5α-reductase assay (conversion of [3H]-testosterone to 5α-reduced metabolites)
- Assay type: biochemical
- EXPERIMENTAL_PARAMETERS: pH 5.5, 0.3 μM; sodium acetate pH 5.5, 25°, 30 min; compared to control reaction mixtures; read-out: percent inhibition of Type II AR
Listing of entries alongside the reported inhibition at 0.3 µM.
MEASURED_QUANTITY: inhibition at 0.3 µM

>>> df
                                         mol  experimental_result
 0  C[C@]12CCC(=O)N[C@@H]1CCc1cc(Sc3ccc(Cl)cc3)ccc12                   0%
 1  CN1C(=O)CC[C@]2(C)c3ccc(SC(c4ccccc4)c4ccccc4)cc3CC[C@@H]12                  71%
 2  CCCN(CCC)[C@@H]1Cc2cc(-c3ccc4c(c3)CC[C@H]3N(C)C(=O)CC[C@]43C)cc3c2[C@@H](C1)CN3C(=O)c1ccccc1                  32%
 3  CN1C(=O)CC[C@]2(C)c3ccc(-c4ccc(S(C)(=O)=O)cc4)cc3CC[C@@H]12                  39%
 4  CN1C(=O)CC[C@]2(C)c3ccc(-c4cccc5ncccc45)cc3CC[C@@H]12                  17%
 5  CN1C(=O)CC[C@]2(C)c3ccc(NC(=O)c4cccc([N+](=O)[O-])c4)cc3CC[C@@H]12                  18%
 6  CN1C(=O)CC[C@]2(C)c3ccc(C(=O)c4ccccc4Cl)cc3CC[C@@H]12                  12%
 7  CN1C(=O)CC[C@]2(C)c3ccc(Sc4nccc5sccc45)cc3CC[C@@H]12                  40%
 8  CN1C(=O)CC[C@]2(C)c3ccc(Sc4ccc5ccccc5n4)cc3CC[C@@H]12                  83%
 9  CN1C(=O)CC[C@]2(C)c3ccc(CC(=O)Nc4ccccc4)cc3CC[C@@H]12                  40%
10  CSc1ccccc1-c1ccc2c(c1)CC[C@H]1N(C)C(=O)CC[C@]21C                  40%
11  CN1C(=O)CC[C@]2(C)c3ccc(-c4c5ccccc5cc5ccccc45)cc3CC[C@@H]12                  36%
12  Cc1cccc2sc(Sc3ccc4c(c3)CC[C@H]3N(C)C(=O)CC[C@]43C)nc12                  87%
13  CN1C(=O)CC[C@]2(C)c3ccc(-c4nc5ccccc5[nH]4)cc3CC[C@@H]12                  18%
14  CN1C(=O)CC[C@]2(C)c3ccc(-c4cccc(C(F)(F)F)c4)cc3CC[C@@H]12                  29%
15  CN1C(=O)CC[C@]2(C)c3ccc(-c4cccc(N)c4)cc3CC[C@@H]12                  22%

This collection of values is drawn from patent US5622962A.
